Origin of the recorded values: patent US20070078096A1

# Assay Protocol: pKa, pI and charge distribution of buffers
# Measurement Conditions: Table 2
Residues, ends and D or L forms follow the SMILES beside them.
Measured pI values are reported for all entries that follow.
Write no unit; give the number alone.

N[C@@H](Cc1c[nH]c2ccccc12)C(=O)N[C@@H](Cc1cnc[nH]1)C(=O)O [Trp-His] (H-Trp-His-OH)
7.30
CC(C)C[C@H](N)C(=O)N[C@@H](Cc1cnc[nH]1)C(=O)O [Leu-His] (H-Leu-His-OH)
7.50
N[C@@H](Cc1cnc[nH]1)C(=O)N[C@@H](Cc1ccccc1)C(=O)O [His-Phe] (H-His-Phe-OH)
6.95
N[C@@H](CO)C(=O)N[C@@H](Cc1cnc[nH]1)C(=O)O [Ser-His] (H-Ser-His-OH)
7.20
NCCC(=O)N[C@@H](Cc1cnc[nH]1)C(=O)O [Carnosine]
8.17
N[C@@H](CC(=O)O)C(=O)N[C@@H](Cc1cnc[nH]1)C(=O)O [Asp-His] (H-Asp-His-OH)
4.90
NC(N)=NCCC[C@H](N)C(=O)N[C@@H](CCC(=O)O)C(=O)O [Arg-Glu] (H-Arg-Glu-OH)
6.06

Data request, read-out pI, for Cn1cncc1C[C@H](NC(=O)CCN)C(=O)O [Anserine]
8.27
